Answer each item with its documented Cell viability of bVSMCs after seven days (MTT signal, relative to control).
Tested on: bovine vascular smooth muscle cells (bVSMCs)
Type: cell-based
Conditions: 5 uM, 7 days, MTT, mean of three experiments
Marks after values point to notes of the source that are not given here.

GET /value?item= COc1ccccc1Oc1c(NS(=O)(=O)c2ccc(C(C)(C)C)cc2)nc(-c2ncccn2)nc1OCCO [bosentan MH, Bosentan monohydrate] &field=Cell viability of bVSMCs after seven days (MTT signal, relative to control) returns 93.05*

GET /value?item= `COc1ccc([C@@H]2Sc3ccccc3N(CCN(C)C)C(=O)[C@@H]2OC(C)=O)cc1` &field=Cell viability of bVSMCs after seven days (MTT signal, relative to control) returns 91.88*

GET /value?item= `CC(=O)CCCCn1c(=O)c2c(ncn2C)n(C)c1=O` &field=Cell viability of bVSMCs after seven days (MTT signal, relative to control) returns 91.33*

GET /value?item= NC(=O)c1cccc(N)c1 [3-AB, 3-aminobenzamide] &field=Cell viability of bVSMCs after seven days (MTT signal, relative to control) returns 93.35*
